# Experiment: NCI Yeast Anticancer Drug Screen. Data for the sgs1 mgt1 strain (AID 161);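 also: 0% = growth of cultures given vehicle only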
# Details: S. cerevisiae sgs1 mgt1 strain, at 50.0 µM, hits give high values
This is part of a sample that, as a whole, favours compounds with a hit. Of some 79,000 tested, about 15% had one in any assay. The source made the active and inactive calls. Rule as the data show it: active = growth inhibition above about 70%; inactive = the rest.
Experimental endpoint: growth inhibition

q: Record request: growth inhibition value, item `O=C(O)CCc1cccc2c(=O)cc(-c3ccccc3)oc12`
a: 0.8% (inactive)

q: Cool, now CSc1nc2c(nc(N)n2C2OC(CO)C(O)C(O)C2O)c(=O)[nH]1 (centres undefined)
a: -1.85% (inactive)

q: And Cc1cccc(C)c1NC(=O)C1C(=O)N(c2c(C)cccc2C)C(=O)/C1=N\NC(N)=S (centres undefined) ?
a: -37.4% (inactive)

q: What about this molecule? `N=C1C=C/[N+](=C\C=CCO)C([O-])=N1`
a: -35.3% (inactive)

q: Again, but for `CCc1nc2c([nH]1)c(=O)n(C)c(=O)n2C`
a: 11.6% (inactive)

q: Would you mind doing `OCC=C1CCCCCC1` as well?
a: 1.5% (inactive)

q: Next up: `OC[C@@H]1C2CCC([C@@H]1CO)C2(Cc1ccccc1)Cc1ccccc1`
a: 9.45% (inactive)

q: Would you kindly repeat that for `CC(C)N(C=C(C#N)C#N)C(C)C` ?
a: -0.4% (inactive)

q: And the next one, `O=c1[nH]nc(NC2Nc3ccccc3N2)c2ccccc12` ?
a: 9.15% (inactive)

q: Also check `OCN(CO)c1ccc2c(c1)Cc1cc(Cl)ccc1-2`
a: -2.2% (inactive)

q: Next up: `COc1ccc2c(c1O)-c1c(OC)c(OC)cc3c1[C@H](C2)[N+](C)(C)CC3`
a: 11.2% (inactive)

q: Try `O=S1(=O)C=Cc2ccccc2CC1` next.
a: -22.4% (inactive)

q: Try this molecule too: `c1ccc2c[n+]3cc4ccccc4cc3cc2c1`
a: 53.7% (inactive)

q: Try the molecule O=C1C2=C(c3ccccc31)C(c1ccccc1Cl)N1C(=O)CCSC1=N2 (centres undefined)
a: 13.9% (inactive)

q: Okay, and `O=c1[nH]nnc2ccccc12` ?
a: 1.85% (inactive)

q: What do we get for `COc1c(C)c(OCC=C(C)C)cc(CO)c1CO` ?
a: -13.9% (inactive)

q: Query `Cc1cccc(Cl)c1NC(=O)c1cccc(C(=O)Nc2c(C)cccc2Cl)c1` next
a: 15.4% (inactive)

q: Param item: Cc1ccc(S(=O)(=O)OCC2OC(CCCO)C/C([Si](C)(C)C)=C\CC2Cl)cc1 (centres undefined)
a: 38.2% (inactive)

q: Also need `O=C(CN1CCOCC1)Nc1ccc(S(=O)(=O)c2ccc([N+](=O)[O-])cc2)cc1` , thanks.
a: 99.3% (active)

q: # repeat for CCCN(CCCCC(NC(C)=O)C(=O)NCc1ccccc1)C(=O)NC (centres undefined)
a: -13.1% (inactive)

q: Could you do the same for CC(C(=O)O)C1Nc2ccccc2NC1=O (centres undefined) , please?
a: 7.05% (inactive)

q: Another molecule: CC(C)c1cc(C(C)C)c(S(=O)(=O)N/N=C2\CC3CCC2(C)C3(C)C)c(C(C)C)c1 (centres undefined)
a: -13.3% (inactive)

q: Lookup `Cc1cc(O)oc(=O)c1`
a: -7.2% (inactive)

q: And `CN(C)C(=O)c1ccc[n+](CC(=O)Nc2ccccc2)c1` ?
a: 13.1% (inactive)

q: Do the same for `NC(=O)c1c(N)nnc(-c2ccccc2)c1-c1ccccc1` please
a: -5.75% (inactive)

q: Again, but for `CC(=O)C(C(C)=O)[N+](=O)[O-].CC(=O)C(C(C)=O)[N+](=O)[O-].[Cu]`
a: -6.75% (inactive)

q: Also `CC(NC(=O)N(C)C)NC(=O)N(C)C` , if possible.
a: -5.15% (inactive)

q: Further, for `OCCCNc1nc2cc(Cl)ccc2o1` ?
a: 16.1% (inactive)

q: Entry `CNc1ncnc2nc[nH]c12` please
a: 2.9% (inactive)

q: And CCOC(=O)CNC(=O)C(Cc1ccccc1)NC(=O)c1ccccc1[N+](=O)[O-] (centres undefined) ?
a: 16% (inactive)

q: Next entry: CCOC(=O)N1C2C=C(C)C(ON2C(=O)c2ccccc2)C2C(C)C(=O)N21 (centres undefined)
a: -5.8% (inactive)

q: Repeat with `Cn1ccc(=O)n(C)c1=O`
a: 2% (inactive)

q: Now give it for `NCCN(CCN)/[N+]([O-])=N/O` too.
a: 6.3% (inactive)

q: // same read-out, input: NC(=O)CSCC(N)C(=O)O (centres undefined)
a: -13.1% (inactive)

q: Can you handle `O=C(Nc1ccc(Br)cc1)c1cc(Cl)cc(Cl)c1Br` next?
a: -16.8% (inactive)

q: Same lookup for `O=C(Nc1cccc(Cl)c1)Nc1ccc(Sc2ccc(Cl)cc2)o1` , please.
a: 70.6% (active)

q: Then this molecule: CCCCCC(O)c1ccc2c(c1)OCO2 (centres undefined)
a: 10.4% (inactive)

q: Lookup `COC(=O)Nc1c2ccccc2c(NC(=O)OC)c2ccccc12`
a: 19.7% (inactive)

q: How about this molecule: `CC(=O)C/C(C)=N\NC(=O)c1ccc([N+](=O)[O-])cc1`
a: 5.65% (inactive)

q: Please do the same for `CN(C)c1nc(Oc2nc(N(C)C)nc(N(C)C)n2)nc(N(C)C)n1` as well.
a: -30.9% (inactive)

q: Lookup `O=C1NC(=NC2CCCCC2)C2(CCN(CCCC3(c4ccc(F)cc4)OCCO3)CC2)N1c1ccccc1`
a: -6.3% (inactive)

q: Same again, this time with `c1ccc2oc(N3CCN(c4nc5ccccc5o4)CC3)nc2c1`
a: -9.1% (inactive)

q: Now consider `C=NC1CCCCC1` and answer again.
a: -10.6% (inactive)

q: Moving on to CC(=O)Oc1cc(OC(C)=O)c2c(c1)OC(c1ccc(OC(C)=O)c(OC(C)=O)c1)CC2=O (centres undefined)
a: 18.3% (inactive)
